test system: HilA; test: qPCR of HilA down-regulation in Salmonella; type: cell-based, Salmonella enterica typhimurium DT104; details: reference 16S, individual synthetic biopeptides, 50 μg per assay
Cut-off 4 Fold on Fold down-regulation: below means rule met, at or above means rule not met.

substance | class.label
MALPPK | rule not met
LKPTPEGD | rule not met
HLLPLP | rule met
YPVEPF [peptide identified in WO 2009/155711] | rule met
CVLPPK | rule met
YPPGGP [peptide identified in WO 2009/155711] | rule met
